# Test system: CCRF-CEM leukemia
# procedure-details: NCI tumour cell line growth inhibition, 48 h
readout-kind: TGI

# lookup: TGI of O=C1C=C(N2CCN(c3ncccn3)CC2)C(=O)c2c(O)ccc(O)c21
> 100 µM

Queued: CC(=O)CC(=O)N1CCSC1=S
> 10 µM

Consider next the molecule CC(=O)OCC1OC(n2c(=O)[nH]c(=O)c3n[nH]nc32)C(OC(C)=O)C(OC(C)=O)C1OC(C)=O (stereo unspecified) in the same way.
> 100 µM

Follow-up entry: O=C1C(Cl)=C(Cl)C(=O)N1c1ccc(Cl)c(Cl)c1Cl
45.6 µM

Same thing, different molecule: Cc1nc(NS(=O)(=O)c2ccc(NCN3C(=O)c4ccccc4C3=O)cc2)oc1C
0.0422 µM

Please give the result for CC(C)(C)c1ccc(C2CC(=O)C3=C(C2)Nc2ccccc2N(C(=O)c2ccccc2Cl)C3c2ccc(F)cc2)cc1 (stereo unspecified) too.
> 100 µM

Now this one: CCCCCCCCCCCNC=O
> 100 µM

Same question for COc1c(OC)c(OC)c2c(=O)cc(-c3ccc(OC(C)C)cc3)oc2c1OC please.
> 68.5 µM

Likewise for CCC(C)(O)c1cn(-c2ccc(Cl)cc2)nn1 (stereo unspecified) ?
> 100 µM

Continue with O=C1OC(=O)C23CSCC12C1C=CC3O1 (stereo unspecified)
> 100 µM

What do we get for O=C(O)c1c2c(cc3c(=O)c4ccccc4[nH]c13)CCCC2 ?
> 100 µM

====

Would you kindly list GI50 for each of these molecules?
# System: RXF 393 renal
# procedure-details: NCI tumour cell line growth inhibition, 48 h

GI50 lookup needed for Cc1cc(=O)[nH]c(N/N=C/c2ccccc2O)n1 , thanks.
12800 nM

Next entry: O=c1cc(-c2ccccc2)[nH]c2c1CCCC2
1800 nM

// same read-out, input: Cc1c(Nc2nccc3cc(CN4CC[C@@H](O)C4)cnc23)cccc1-c1cccc(-c2nc3cc(CN4CC[C@@H](C(=O)O)C4)cc(C#N)c3o2)c1C
2000 nM

CC(C)C[C@H](NC(=O)Cn1cccc(CNC(=O)c2ccccc2)c1=O)B(O)O , same question.
316 nM

Then this molecule: CCN1CCN(c2cc(C(=O)Nc3cccc(Nc4ccc5c(OC)cccc5n4)c3)cc(C(F)(F)F)c2)CC1
918 nM

Try this molecule too: CC(C)(C)c1ccc(C2CC(=O)C3=C(C2)Nc2ccccc2N(C(=O)c2ccccc2Cl)C3c2ccc(F)cc2)cc1 (stereo not given)
> 100000 nM

And for COc1cc(OC)c2c(=O)cc(-c3ccccc3OCc3ccccc3)oc2c1OC ?
> 100000 nM

Check O=C1NC(=O)C(=Cc2cn(Cc3ccccc3)c3ccccc23)C(=O)N1 too.
11600 nM

Field entry: CC(=O)c1c[nH]c2ccc(-c3ccnc(Nc4ccc(NC(=O)C5CCCC5)c(CN5CCOCC5)c4)n3)cc12
11.4 nM

Then what about the molecule CCOC(=O)c1c(-c2ccccc2)[n+](=O)c2cc(F)c(F)cc2n1[O-] ?
1380 nM

Item: O=C(Nc1ccc(-n2cc(-c3ccncc3)c(-c3ccc(O)c(Cl)c3)n2)cc1)c1ccc(Cl)c(C(F)(F)F)c1
717 nM

How about CCCCCCCC(=O)[O-].CCCCCCCC(=O)[O-].N.N.N.N.[Co+3].[O-][Cl+3]([O-])([O-])[O-] ?
74600 nM

What do you get for CC12OC(C(=O)C13CC3)C1C(=O)c3c(O)ccc(O)c3C(=O)C12 (stereo not given) ?
16700 nM

Next up: COc1cc(/C=C/C(=O)CC(=O)/C=C/c2cc(OC)c(O)c(OC)c2)cc(OC)c1O
2630 nM

Also, O=C1CS/C(=N/S(=O)(=O)c2ccc(N3N=C4c5ccccc5CC4C3c3cccs3)cc2)N1C(=O)c1ccccc1 (stereo not given) please.
90700 nM

====

# Test system: UO-31 renal
# procedure-details: NCI tumour cell line growth inhibition, 48 h; in the data active means GI50 below about 0.43 µM; inactive means the rest
Respond only with the outcome that fits, drawn from active, inactive

Each compound tested received a call. Report the one for COc1ccc(Nc2ncnc3ccc(-c4cncc(NS(C)(=O)=O)c4)cc23)cc1Cl .
inactive

What do you have for OCCCCC#Cc1ccccc1C#Cc1cccnc1 ?
inactive

Also, COc1cc(/C=C/C(=O)CC(=O)/C=C/c2cc(OC)c(O)c(OC)c2)cc(OC)c1O please.
inactive

Proceed to CC(=O)c1c[nH]c2ccc(-c3ccnc(Nc4ccc(NC(=O)C5CCCC5)c(CN5CCOCC5)c4)n3)cc12
active

Input COc1ccc(C2NN=C3c4ccccc4CCC32)cc1 (stereo unspecified)
inactive

What about this compound? O=C1CS/C(=N/S(=O)(=O)c2ccc(N3N=C4c5ccccc5CC4C3c3cccs3)cc2)N1C(=O)c1ccccc1 (stereo unspecified)
inactive

Further, for CC(C)[P+](c1ccccc1)(c1ccccc1)c1ccccc1 ?
inactive

Field entry: O=c1cc(-c2ccccc2)[nH]c2c1CCCC2
inactive

Same for C=C(C(=O)OC)[C@@H]1CC2OC1C(=O)C(C)CCC/C(C)=C/CC[C@@]2(C)O (stereo partly specified)
inactive

CC(C)C[C@H](NC(=O)Cn1cccc(CNC(=O)c2ccccc2)c1=O)B(O)O , same question.
inactive

Also CC1CCCC(C#N)(NOC2=NCCN2)C1 (stereo unspecified) , if possible.
inactive

====

# System: K-562 leukemia
# procedure-details: NCI tumour cell line growth inhibition, 48 h
For each of the compounds below, state its TGI.
Supply the numeric figure in µM, leaving out any unit text.

Can you share its TGI? I mean this compound: CC12CCC(=O)C(O1)C1C(=O)c3ccc4c(ccc5ccccc54)c3C(=O)C12 (stereo unspecified)
7.3

Again, but for CC(C)=Cc1cc(C)c2ccc(C)c3c2c1C(C)=C(O)C3=O
24.7

Query O=C1C(Cl)=C(Cl)C(=O)N1c1ccc(Cl)c(Cl)c1Cl next
91.8

====

# System: HOP-92 NSCLC
# procedure-details: NCI tumour cell line growth inhibition, 48 h
readout-kind: TGI

Quick one: TGI for O=C1C=CC2(O[C@H](C3CCCCC3)[C@@H](C3CCCCC3)O2)C(SC(=O)c2ccccc2)C1 (stereo partly specified) ?
16.8 µM

Now the compound Cc1cc(C)c2c(c1)C/C(=C\c1cccc(C)c1C(=O)O)C2=O
> 100 µM

Moving on to the next compound: CC(=O)c1c[nH]c2ccc(-c3ccnc(Nc4ccc(NC(=O)C5CCCC5)c(CN5CCOCC5)c4)n3)cc12
0.365 µM

Try CCCCCCCCCCCNC=O next.
> 100 µM

Please answer likewise for CC(C)OP(=O)(OC(C)C)C(C(C)C)N(C)C(N)=NC#N (stereo unspecified)
> 100 µM

Next entry: Cc1ccc(-n2nncc2[Si](C)(C)C)s1
> 100 µM

Would you mind doing CCCCCCC(=O)C/C(CCC(=O)N(Cc1ccccc1)Cc1ccccc1)=N\NC(N)=O as well?
> 100 µM

Okay, and O=S(=O)(/N=S(/Nc1ccccc1)C(F)(F)Cl)c1ccccc1 (stereo unspecified) ?
> 100 µM

Item: Cc1ccccc1-n1c(=S)[nH]c2c(sc(=O)n2-c2ccccc2C)c1=O
> 100 µM

Please answer likewise for Cc1cn(C2CC(COCc3ccccc3)N(CCO[Si](C)(C)C(C)(C)C)O2)c(=O)[nH]c1=O (stereo unspecified)
25.7 µM

Next compound up: C=C(C)[C@@H]1CCc2c(O)c(O)c(=O)cc(C)c2C1
17 µM

====

# Tested on: K-562 leukemia
# procedure-details: NCI tumour cell line growth inhibition, 48 h
readout-kind: TGI

For Oc1ccc2ccccc2c1OCc1nnc(CCCCCCCCc2nnc(COc3c(O)ccc4ccccc34)n2Nc2ccccc2)n1Nc1ccccc1 , what is its reported TGI?
> 100 µM

Another: COC(=O)CC1(O)C=CC(=O)C=C1
> 100 µM

Please answer likewise for COc1cc2c3c(n(C)c(=O)c2cc1OC)-c1cc2c(cc1/C3=C\CCCCCBr)OCO2
30.2 µM

Now this one: C/C(=N\Nc1nc2ccccc2[nH]1)c1ncccn1
> 100 µM

Moving on to the next compound: CC(C)=Cc1cc(CCC/C(C)=C/Cc2c(O)cc(C)c(C(=O)O)c2O)co1
> 100 µM

Another compound to look at: C=C(C)[C@@H]1CCc2c(O)c(O)c(=O)cc(C)c2C1
> 27.6 µM

What about this compound? COc1c(C)c(C/C=C(\C)CCCC(C)CCCC(C)CCCC(C)C)c(OC)c2ccccc12 (configuration not stated)
> 100 µM

Now consider Cc1cc(S(=O)(=O)Nc2nc3cscc3c(=O)n2N)c(S)cc1Cl and answer again.
> 100 µM

What do you have for O=[N+]([O-])c1cc(/C=N\NS(=O)(=O)c2ccc(Cl)cc2)c(O)c([N+](=O)[O-])c1 ?
79.5 µM

And what about the compound COc1ccc2c(c1O)[C@@]13CCCC=C1[C@@H](C2)[N+](C)(C)CC3 ?
> 100 µM

Subsequent entry: O=c1cc(-c2ccccc2)[nH]c2c1CCCC2
> 100 µM

Also need Oc1ccc(Cl)cc1-c1cc(-c2ccccc2)nc(=S)[nH]1 , thanks.
> 100 µM

Next compound: CCCCCCCCCCCNC=O
86.1 µM

Input C=C(CN(CC)CC)C1(c2ccccc2)CC2(CCCC2)C(=O)O1 (configuration not stated)
> 100 µM

Also, O=c1[nH]c2ccccc2c(O)c1/C=N/C(=S)NC1CCCCC1 please.
> 100 µM

Then this compound: COC(=O)c1onc(C2OC(C)(C)OC2C(O)COC(c2ccccc2)(c2ccccc2)c2ccccc2)c1C(=O)OC (configuration not stated)
> 100 µM

What do we get for O=C1CCCCC/C1=C\c1cccc(F)c1 ?
> 100 µM

Similarly, COc1cc(S(=O)(=O)Nc2nc(-c3ccc(N4C(=O)C(C)SC4c4ccccc4O)cc3)cs2)ccc1Cl (configuration not stated) ?
> 100 µM

Another compound to look at: c1ccc2c[n+](CCCC[n+]3ccc4ccccc4c3)ccc2c1
> 100 µM

Entry CCOC(=O)c1sc2c(C(=O)OCC)n3cc(C)cc(C)c3c2c1O please
> 100 µM

Same again, this time with COc1cc2nc(N3CCC[C@H](NC4=CC(=O)c5ccccc5C4=O)C3)nc(N)c2cc1OC
1.42 µM

Param item: O=C1CC(c2ccsc2)n2cccc21 (configuration not stated)
> 100 µM
